Test system: HCI-011.E2 (organoid from an ER-positive breast cancer xenograft)
EXPERIMENT NOTES: CTG-3D luminescence at 96 h relative to day-0 seeding control (ratio to day 0); higher = more growth / less cytotoxicity; PDxO 3D drug screen (set 2), 96 h, CTG-3D normalised to day-0 seeding control.
TEST CONTEXT: 0.00025 µM
MEASUREMENT NAME: CTG-3D luminescence at 96 h
Output: the number by itself.

Requested read-out: CTG-3D luminescence at 96 h. Entry: CC(=O)c1c(C)c2cnc(Nc3ccc(N4CCNCC4)cn3)nc2n(C2CCCC2)c1=O
1.8

Requested read-out: CTG-3D luminescence at 96 h. Entry: CO[C@H]1C[C@@H]2CC[C@@H](C)[C@@](O)(O2)C(=O)C(=O)N2CCCC[C@H]2C(=O)O[C@H]([C@H](C)C[C@@H]2CC[C@@H](O)[C@H](OC)C2)CC(=O)[C@H](C)/C=C(\C)[C@@H](O)[C@@H](OC)C(=O)[C@H](C)C[C@H](C)/C=C/C=C/C=C/1C
0.769

Requested read-out: CTG-3D luminescence at 96 h. Entry: CCOc1ccn(-c2ccc(F)cc2)c(=O)c1C(=O)Nc1ccc(Oc2ccnc(N)c2Cl)c(F)c1
1.78

Requested read-out: CTG-3D luminescence at 96 h. Entry: C[C@@H](Nc1cc(F)cc(F)c1)c1cc(C(=O)N(C)C)cc2c(=O)cc(N3CCOCC3)oc12
1.9

Requested read-out: CTG-3D luminescence at 96 h. Entry: Cc1c(CN2CCN(C(=O)[C@H](C)O)CC2)sc2c(N3CCOCC3)nc(-c3cnc(N)nc3)nc12
1.71

---

Kindly supply the reported CTG-3D luminescence at 96 h values for the records listed here.
Tested on: HCI-002 (organoid from a triple-negative breast cancer xenograft)
EXPERIMENT NOTES: CTG-3D luminescence at 96 h relative to day-0 seeding control (ratio to day 0); higher = more growth / less cytotoxicity; PDxO 3D drug screen, 96 h, CTG-3D normalised to day-0 seeding control.
TEST CONTEXT: 12.5 pM; days in culture: 209
Output: the number by itself.

Requested read-out: CTG-3D luminescence at 96 h. Entry: CCc1c2c(nc3ccc(O)cc13)-c1cc3c(c(=O)n1C2)COC(=O)[C@]3(O)CC
2.21

Requested read-out: CTG-3D luminescence at 96 h. Entry: Cc1nc(-c2cn3c(n2)-c2ccc(-c4cnn(C(C)(C)C(N)=O)c4)cc2OCC3)n(C(C)C)n1
2.15

Requested read-out: CTG-3D luminescence at 96 h. Entry: C[C@H](NC(=O)CCC(F)(F)F)C(=O)N[C@@H]1C(=O)N(CCO)c2ncccc2-c2ccccc21
2.47

Requested read-out: CTG-3D luminescence at 96 h. Entry: O=C(O)C1(C(=O)O)CCC1.[NH2-].[NH2-].[Pt+2]
2.4

Requested read-out: CTG-3D luminescence at 96 h. Entry: Cc1cc(Nc2ncc(Cl)c(Nc3ccccc3S(=O)(=O)C(C)C)n2)c(OC(C)C)cc1C1CCNCC1
2.4

Requested read-out: CTG-3D luminescence at 96 h. Entry: Cc1cc(Nc2ncnc3ccc(NC4=NC(C)(C)CO4)cc23)ccc1Oc1ccn2ncnc2c1
2.22

Requested read-out: CTG-3D luminescence at 96 h. Entry: NC(=O)Nc1cc(-c2cccc(F)c2)sc1C(=O)N[C@H]1CCCNC1
2.16

Requested read-out: CTG-3D luminescence at 96 h. Entry: Nc1ccn([C@@H]2O[C@H](CO)[C@@H](O)C2(F)F)c(=O)n1
2.52

Requested read-out: CTG-3D luminescence at 96 h. Entry: CC(C)(C(=O)NCC(F)(F)C(F)(F)F)C(=O)N[C@@H]1C(=O)Nc2ccccc2-c2ccccc21
2.45

Attribution: the supplement of paper PMC8882468
